Where a SMILES comes first, the peptide text is derived from it. Bridges are numbered along the chain shown (N, C = ends). [ ]: non-standard residue; d: D form. The star is where a group is joined. hPhe(3,5-F2-4-CF3) = N[C@@H](CCc1cc(F)c(C(F)(F)F)c(F)c1)C(=O)O; NPrPhe(4-CF3) = CCCN[C@@H](Cc1ccc(C(F)(F)F)cc1)C(=O)O; NMeGly(cPent) = CN[C@H](C(=O)O)C1CCCC1; NMeD = CN[C@@H](CC(=O)O)C(=O)O; NMeL = CN[C@@H](CC(C)C)C(=O)O; αMeV = CC(C)[C@](C)(N)C(=O)O; Morpholide = C1CN(*)CCO1; Sar = CNCC(=O)O
Dear all, this message contains pIC50 results, target or system human lung cancer strain NCI-H441.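 Note: cell proliferation inhibition after four days measured by CellTiter-Glo.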
Give bare numbers, as −log10 of the molar value.

Please state, for each entry, its recorded pIC50.
1. CCCN1C(=O)CN(C)C(=O)CN(C)C(=O)[C@H]([C@@H](C)CC)NC(=O)[C@H](CC(C)C)N(C)C(=O)C[C@@H](C(=O)N2CCOCC2)N(C)C(=O)[C@H](C2CCCC2)N(C)C(=O)[C@](C)(C(C)C)NC(=O)[C@@H]2CCCN2C(=O)[C@H](CCc2cc(F)c(C(F)(F)F)c(F)c2)NC(=O)CN(C)C(=O)[C@@H]1Cc1ccc(C(F)(F)F)cc1 [PP0756] ([NMeL]I[Sar][Sar][NPrPhe(4-CF3)][Sar][hPhe(3,5-F2-4-CF3)]P[αMeV][NMeGly(cPent)][NMeD]-Morpholide; lactam N-11)
2. CCO[C@@H]1C[C@H]2C(=O)NC3(CCC3)C(=O)N(C)[C@@H](C3CCCC3)C(=O)N(C)[C@H](C(=O)N(C)C)CC(=O)N(C)[C@@H](CC(F)F)C(=O)N[C@@H]([C@@H](C)CC)C(=O)N(C)CC(=O)N(C)[C@H]3CCCCCN(C3=O)[C@@H](Cc3ccc(F)cc3)C(=O)N(C)CC(=O)N[C@@H](CCc3cc(F)c(C(F)(F)F)c(F)c3)C(=O)N2C1

Response given:
1: 7.16; 2: 7.89
